// provenance: the NIST ThermoML archive (doi:10.1021/acs.jced.5b00892)

# CONDITION SUMMARY: 380 K; Liquid; Gas chromatography
# note: boundary value 0.04 kPa maps to not satisfied; vapor or sublimation pressure below it maps to satisfied

[[record]]
compound = "CCCC/C=C\\CCCCCCCCCCCCOC(C)=O [(Z)-octadec-13-en-1-yl acetate]"
answer_label = "satisfied"

[[record]]
compound = "CC/C=C/C=C/CCCCCCCCOC(C)=O [(9E,11E)-tetradeca-9,11-dienyl acetate]"
answer_label = "satisfied"

[[record]]
compound = "CCC/C=C\\CCCCCCCOC(C)=O [(Z)-dodec-8-enyl acetate]"
answer_label = "not satisfied"

[[record]]
compound = "CC/C=C/CCCCCCCCCCOC(C)=O [(E)-tetradec-11-enyl acetate]"
answer_label = "not satisfied"

[[record]]
compound = "CCCCCCCC/C=C\\CCCOC(C)=O [(Z)-tridec-4-enyl acetate]"
answer_label = "not satisfied"

[[record]]
compound = "C#CCOC(=O)/C=C(C)/C=C/CC(C)CCCC(C)C (configuration not stated) [prop-2-ynyl (2E,4E)-3,7,11-trimethyldodeca-2,4-dienoate]"
answer_label = "satisfied"

[[record]]
compound = "CCOC(=O)/C=C(C)/C=C/C[C@@H](C)CCCC(C)C [ethyl (S,2E,4E)-3,7,11-trimethyldodeca-2,4-dienoate]"
answer_label = "satisfied"

